Molecular target: Tyrosyl-tRNA synthetase, putative (Trypanosoma cruzi (strain CL Brener))
Experiment: Trypanosoma cruzi tyrosyl tRNA synthetase (TcYRS) SOP
Assay type: functional
Parameters: scale not given: direction of the effect not stated beside the values
Settings: 30 µM
Would you kindly list Percent Effect for each of these compounds?

Consider the reported Percent Effect for these compounds:
{"columns": ["compound", "Percent Effect"],
 "data": [
  ["CCc1c(C(=O)NCC2CCS(=O)(=O)C2)cnn1-c1ccc(C)cc1 (centres undefined)", "21.5%"],
  ["Cc1ccc(N2CCCN(C(=O)c3c(C)oc(C)c3C)CC2)nn1", "15.4%"],
  ["Cc1nccn1CCC1CCCCN1Cc1ccc(N(C)C)nc1 (centres undefined)", "11.1%"]
]}

For each listed entry, give its Percent Effect.
1. CC(=O)N1CCC(C(=O)NCCN2CCCCC2)CC1
2. Cn1cc(C(=O)N2CCCC(Cc3nccs3)C2)cn1 (centres undefined)
3. CCCSCC(=O)NS(=O)(=O)c1ccc2c(c1)OCCO2
4. COc1cc(CNCc2c(C)nn(C)c2N(C)C)ccn1
5. CCC(C)NC(=O)c1ccccc1-n1cnnn1 (centres undefined)

["5.13%", "15%", "0%", "18.5%", "16.1%"]

Could you tell me Percent Effect for each of these compounds? They are listed below.
1. O=C(NCc1ccco1)[C@H]1C[C@@H]2CCN(c3ccncn3)C[C@@H]2O1
2. O=C(Nc1cccnc1)[C@H]1C[C@@H]2CN(C(=O)NC3CCCC3)C[C@H]1O2
3. COCCC(=O)N1CCC2(CC1)CC(c1ccccc1)CN(C)C2 (centres undefined)
4. COCc1cccc(NS(=O)(=O)c2cc(C(=O)O)cs2)c1

1. 17.5%
2. 15.4%
3. 12.2%
4. 13.2%

For each of the compounds below, state Percent Effect.
1. COCCN1CC(C(=O)NCc2ccnc(-n3cccn3)c2)CC1=O (centres undefined)
2. Cc1ccc2cc(C3(O)CCN(C(=O)CN4CCCC4)CC3)ccc2n1
3. Cn1cc(-c2csc(CN3CCOCC3)n2)cn1
4. O=C(Cc1ccccc1)N1CCC2(CC(=O)N(c3ccsc3)C2)C1 (centres undefined)

1: -3.61%; 2: 5.13%; 3: 2.56%; 4: -28.1%

# per-item lookup of Percent Effect; items listed below
1. Cc1ncsc1C(=O)NC1CCN(CCC(N)=O)CC1
2. Cc1cc(C)n(CC2CN(Cc3cccc(C(N)=O)c3)CCO2)n1 (centres undefined)
3. COc1ccc(-c2noc(CN3CCOCC3C)n2)cc1OC (centres undefined)
4. COc1ccc(OC)c(C2CCN(Cc3nc(C)n4ccccc34)C2)c1 (centres undefined)
5. Cc1cc(C)nc(N2Cc3cnn(Cc4ccc(F)cc4)c3C2)n1

9.76%
20.7%
16.1%
26.8%
-6.17%
